subject-of-test: HDAC1 (Homo sapiens)
Sequence (Q13547 whole entry): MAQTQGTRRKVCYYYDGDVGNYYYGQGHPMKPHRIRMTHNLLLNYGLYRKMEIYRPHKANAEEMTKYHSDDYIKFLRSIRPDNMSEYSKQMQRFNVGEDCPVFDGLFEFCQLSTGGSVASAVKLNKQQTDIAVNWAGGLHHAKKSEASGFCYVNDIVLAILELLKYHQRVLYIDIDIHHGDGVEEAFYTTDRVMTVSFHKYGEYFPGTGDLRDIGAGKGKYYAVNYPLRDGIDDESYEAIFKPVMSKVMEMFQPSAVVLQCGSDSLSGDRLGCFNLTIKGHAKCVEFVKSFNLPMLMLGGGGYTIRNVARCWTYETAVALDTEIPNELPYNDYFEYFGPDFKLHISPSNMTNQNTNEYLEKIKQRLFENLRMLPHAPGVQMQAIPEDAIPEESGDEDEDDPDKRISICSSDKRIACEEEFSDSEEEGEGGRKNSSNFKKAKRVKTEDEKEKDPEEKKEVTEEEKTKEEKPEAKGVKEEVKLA
metric-name: pIC50
Please report pIC50 as the negative decimal logarithm of the molar concentration, giving only the number.

Item Nc1ccccc1NC(=O)c1ccc(N(CCCl)CCCl)cc1 [NA] was tested on HDAC1 (Homo sapiens); the reported pIC50 is 7.02

* * *

subject-of-test: HDAC7 (Homo sapiens)
Construct: purchased BPS Bioscience
Sequence (Q8WUI4 whole entry): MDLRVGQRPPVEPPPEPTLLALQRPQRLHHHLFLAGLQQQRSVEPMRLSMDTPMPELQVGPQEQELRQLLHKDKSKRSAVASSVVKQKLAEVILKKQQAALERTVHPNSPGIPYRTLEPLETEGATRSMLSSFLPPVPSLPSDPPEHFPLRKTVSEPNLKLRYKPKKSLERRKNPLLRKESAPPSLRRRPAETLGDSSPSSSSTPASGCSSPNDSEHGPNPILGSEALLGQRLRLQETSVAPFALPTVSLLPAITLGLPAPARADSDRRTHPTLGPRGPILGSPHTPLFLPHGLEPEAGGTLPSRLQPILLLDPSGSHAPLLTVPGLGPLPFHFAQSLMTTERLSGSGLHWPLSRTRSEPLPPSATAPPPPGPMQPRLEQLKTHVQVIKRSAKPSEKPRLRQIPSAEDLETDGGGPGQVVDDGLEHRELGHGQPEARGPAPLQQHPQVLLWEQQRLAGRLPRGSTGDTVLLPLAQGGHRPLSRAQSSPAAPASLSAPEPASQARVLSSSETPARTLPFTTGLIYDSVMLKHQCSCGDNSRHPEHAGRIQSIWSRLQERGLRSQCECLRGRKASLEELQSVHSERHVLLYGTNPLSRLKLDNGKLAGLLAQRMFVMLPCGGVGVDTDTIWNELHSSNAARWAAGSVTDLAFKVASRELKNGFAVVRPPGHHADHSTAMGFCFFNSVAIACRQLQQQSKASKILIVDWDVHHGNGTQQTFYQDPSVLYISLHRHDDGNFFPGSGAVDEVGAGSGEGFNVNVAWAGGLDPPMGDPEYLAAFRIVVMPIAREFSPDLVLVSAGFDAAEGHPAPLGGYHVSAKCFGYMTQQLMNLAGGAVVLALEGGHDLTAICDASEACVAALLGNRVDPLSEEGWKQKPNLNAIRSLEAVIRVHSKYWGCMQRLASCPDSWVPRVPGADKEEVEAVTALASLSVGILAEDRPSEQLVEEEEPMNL
assay-overview: In vitro HDAC inhibitory assay (fluorogenic substrate)
Type: biochemical
measurement-context: n ≥ 2, SD <10% of the mean; read-out: Enzyme inhibitory activity IC50, HDAC7
pIC50: −log10 of the molar value.
metric-name: pIC50

Documented pIC50 of Nc1ccccc1NC(=O)c1ccc(N(CCCl)CCCl)cc1 : < 5.30
